I'd appreciate it if you could supply IC50 values for the items below.
# System: bladder carcinoma (J82) cells
# Protocol text: Antiproliferative assay (MTT reduction, 3 days)
# Assay type: cell-based, human
# Setup conditions: J82 cells, 3 days, MTT; >100 µM considered inactive; read-out: IC50 ± SD, J82

Examples with their reported IC50 follow.
CC(C)c1cc2c3c(c1OC(=O)CCCc1cn(Cc4ccc([N+](=O)[O-])cc4)nn1)OC(=O)C31CCCC(C)(C)C1CC2 (centres unmarked) : > 100 µM
CC(C)c1cc2c3c(c1OC(=O)CCCc1cn(CSc4ccccc4)nn1)OC(=O)C31CCCC(C)(C)C1CC2 (centres unmarked) : 80.1 µM
CC(C)c1cc2c3c(c1OC(=O)CCc1cn(Cc4ccc([N+](=O)[O-])cc4)nn1)OC(=O)C31CCCC(C)(C)C1CC2 (centres unmarked) : > 100 µM
CC(C)c1cc2c3c(c1OC(=O)CCCc1cn(Cc4ccccc4)nn1)OC(=O)C31CCCC(C)(C)C1CC2 (centres unmarked) : > 100 µM
CC(C)c1cc2c3c(c1OC(=O)CCc1cn(Cc4ccc(Br)cc4)nn1)OC(=O)[C@@]31CCCC(C)(C)[C@@H]1CC2 : > 100 µM
CC(C)c1cc2c3c(c1OC(=O)CCCc1cn(Cc4ccc(Br)cc4)nn1)OC(=O)[C@@]31CCCC(C)(C)[C@@H]1CC2 : > 100 µM

Look up IC50 for the entries below, preserving their order.
1. CC(C)c1cc2c3c(c1OC(=O)CCc1cn(CSc4ccccc4)nn1)OC(=O)[C@@]31CCCC(C)(C)[C@@H]1CC2
2. CC(C)c1cc2c3c(c1OC(=O)CCc1cn(Cc4ccccc4)nn1)OC(=O)[C@@]31CCCC(C)(C)[C@@H]1CC2

Solution:
["> 100 µM", "74.1 µM"]

* * *

# Tested on: C. neoformans ATCC 32264
# Protocol text: Antifungal broth microdilution (CLSI M27-A3), growth inhibition
# Assay type: cell-based, Cryptococcus neoformans
# Setup conditions: 125 μg∙mL^−1, 48 h
Hi there, I'd appreciate the recorded Inhibition percentage against C. neoformans ATCC 32264 for every entry that follows.
Give bare numbers, in %.

CC(C)c1cc2c3c(c1OC(=O)CCCc1cn(Cc4ccc(Br)cc4)nn1)OC(=O)[C@@]31CCCC(C)(C)[C@@H]1CC2 : 22.4

Working through the 2 molecules below one at a time, give Inhibition percentage against C. neoformans ATCC 32264 for each.
1. CC(C)c1cc2c3c(c1OC(=O)CCc1cn(Cc4ccc([N+](=O)[O-])cc4)nn1)OC(=O)C31CCCC(C)(C)C1CC2 (stereo not drawn)
2. COC(=O)C12CCCC(C)(C)C1CCc1cc(C(C)C)c(OC(=O)CCCc3cn(Cc4ccc([N+](=O)[O-])cc4)nn3)c(OC(=O)CCCc3cn(Cc4ccc([N+](=O)[O-])cc4)nn3)c12 (stereo not drawn)

Solution:
1. 20.0
2. 35.5

* * *

Exercise: state measured IC50 for each of the molecules provided.
# Test system: normal lung fibroblasts (MRC-5)
# Protocol text: Antiproliferative assay (MTT reduction, 3 days)
# Format: cell-based, human
# Setup conditions: MRC-5 normal fibroblasts, >100 µM considered inactive, read-out: IC50 ± SD, MRC-5
# Protocol: The antiproliferative activity towards the following human cell lines was determined: normal lung fibroblasts (MRC-5), gastric epithelial adenocarcinoma (AGS), lung cancer (SK-MES-1) and bladder carcinoma (J82) cells. All human cell lines used in this work were purchased from the American Type Culture Collection (ATCC, Manasas, VA, USA). […] Cell viability was determined by means of the MTT reduction assay at the end of the incubation with the products. […]
Numbers only, in µM.

CC(C)c1cc2c3c(c1OC(=O)CCc1cn(Cc4ccc(Br)cc4)nn1)OC(=O)[C@@]31CCCC(C)(C)[C@@H]1CC2 : 82.6

Please examine the following record next.
Problem: Return value of IC50 for input CC(C)c1cc2c3c(c1OC(=O)CCCc1cn(CSc4ccccc4)nn1)OC(=O)C31CCCC(C)(C)C1CC2 (stereo not shown) , no commentary.
Solution: 46.9

* * *

# System: C. neoformans ATCC 32264
# Protocol text: Antifungal broth microdilution (CLSI M27-A3), growth inhibition
# Format: cell-based, Cryptococcus neoformans
# Setup conditions: 3.9 μg∙mL^−1, 48 h
Reported metric: Inhibition percentage against C. neoformans ATCC 32264
Phrase the answer as number then unit, nothing more needed.

Below are some compounds; for each one, tell me its Inhibition percentage against C. neoformans ATCC 32264.
1. CC(C)c1cc2c3c(c1OC(=O)CCCc1cn(Cc4ccccc4)nn1)OC(=O)C31CCCC(C)(C)C1CC2 (centres unmarked) [Compound 4]
2. CC(C)c1cc2c3c(c1OC(=O)CCc1cn(CSc4ccccc4)nn1)OC(=O)[C@@]31CCCC(C)(C)[C@@H]1CC2 [Compound 1]

Solution:
0.0%
0.0%

* * *

# Test system: C. albicans ATCC 10231
# Protocol text: Antifungal broth microdilution (CLSI M27-A3), growth inhibition
# Assay type: cell-based, Candida albicans
# Setup conditions: 31. μg∙mL^−1, 48 h
Reported metric: Inhibition percentage against C. albicans ATCC 10231 (%)
Answers are plain numbers, in %.

Before answering, review these 5 worked examples.
CC(C)c1cc2c3c(c1OC(=O)CCCc1cn(CSc4ccccc4)nn1)OC(=O)C31CCCC(C)(C)C1CC2 (stereo not drawn) [Compound 2] : 8.9
CC(C)c1cc2c(c(OC(=O)CCc3cn(Cc4ccccc4)nn3)c1OC(=O)CCc1cn(Cc3ccccc3)nn1)C13CCCC(C)(C)C1CC2OC3=O (stereo not drawn) [Compound 19] : 4.6
CC(C)c1cc2c(c(OC(=O)CCCc3cn(Cc4ccc(Br)cc4)nn3)c1OC(=O)CCCc1cn(Cc3ccc(Br)cc3)nn1)C13CCCC(C)(C)C1CC2OC3=O (stereo not drawn) [Compound 22] : 5.9
CC(C)c1cc2c3c(c1OC(=O)CCc1cn(Cc4ccccc4)nn1)OC(=O)[C@@]31CCCC(C)(C)[C@@H]1CC2 [Compound 3] : 11.1
CC(C)c1cc2c(c(OC(=O)CCCc3cn(Cc4ccc([N+](=O)[O-])cc4)nn3)c1OC(=O)CCCc1cn(Cc3ccc([N+](=O)[O-])cc3)nn1)C13CCCC(C)(C)C1CC2OC3=O (stereo not drawn) [Compound 24] : 3.4

Can you give me Inhibition percentage against C. albicans ATCC 10231 for all of these, one by one?
1. CC(C)c1cc2c3c(c1OC(=O)CCCc1cn(Cc4ccc([N+](=O)[O-])cc4)nn1)OC(=O)C31CCCC(C)(C)C1CC2 (stereo not drawn) [Compound 8]
2. COC(=O)C12CCCC(C)(C)C1CCc1cc(C(C)C)c(OC(=O)CCc3cn(Cc4ccc([N+](=O)[O-])cc4)nn3)c(OC(=O)CCc3cn(Cc4ccc([N+](=O)[O-])cc4)nn3)c12 (stereo not drawn) [Compound 15]
3. CC(C)c1cc2c(c(OC(=O)CCCc3cn(CSc4ccccc4)nn3)c1OC(=O)CCCc1cn(CSc3ccccc3)nn1)C13CCCC(C)(C)C1CC2OC3=O (stereo not drawn) [Compound 18]
4. CC(C)c1cc2c3c(c1OC(=O)CCCc1cn(Cc4ccccc4)nn1)OC(=O)C31CCCC(C)(C)C1CC2 (stereo not drawn) [Compound 4]
5. CC(C)c1cc2c(c(OC(=O)CCc3cn(CSc4ccccc4)nn3)c1OC(=O)CCc1cn(CSc3ccccc3)nn1)C13CCCC(C)(C)C1CC2OC3=O (stereo not drawn) [Compound 17]
6. CC(C)c1cc2c3c(c1OC(=O)CCc1cn(Cc4ccc([N+](=O)[O-])cc4)nn1)OC(=O)C31CCCC(C)(C)C1CC2 (stereo not drawn) [Compound 7]
7. COC(=O)C12CCCC(C)(C)C1CCc1cc(C(C)C)c(OC(=O)CCCc3cn(Cc4ccccc4)nn3)c(OC(=O)CCCc3cn(Cc4ccccc4)nn3)c12 (stereo not drawn) [Compound 12]
8. COC(=O)C12CCCC(C)(C)C1CCc1cc(C(C)C)c(OC(=O)CCCc3cn(CSc4ccccc4)nn3)c(OC(=O)CCCc3cn(CSc4ccccc4)nn3)c12 (stereo not drawn) [Compound 10]

Solution:
1. 2.5
2. 3.0
3. 11.5
4. 10.2
5. 6.7
6. 2.2
7. 9.3
8. 5.1

For each listed entry, give its Inhibition percentage against C. albicans ATCC 10231.
1. CC(C)c1cc2c3c(c1OC(=O)CCCc1cn(Cc4ccc(Br)cc4)nn1)OC(=O)[C@@]31CCCC(C)(C)[C@@H]1CC2 [Compound 6]
2. COC(=O)C12CCCC(C)(C)C1CCc1cc(C(C)C)c(OC(=O)CCc3cn(Cc4ccc(Br)cc4)nn3)c(OC(=O)CCc3cn(Cc4ccc(Br)cc4)nn3)c12 (stereo not drawn) [Compound 13]
3. COC(=O)C12CCCC(C)(C)C1CCc1cc(C(C)C)c(OC(=O)CCCc3cn(Cc4ccc([N+](=O)[O-])cc4)nn3)c(OC(=O)CCCc3cn(Cc4ccc([N+](=O)[O-])cc4)nn3)c12 (stereo not drawn) [Compound 16]
4. CC(C)c1cc2c3c(c1OC(=O)CCc1cn(CSc4ccccc4)nn1)OC(=O)[C@@]31CCCC(C)(C)[C@@H]1CC2 [Compound 1]
5. CC(C)c1cc2c(c(OC(=O)CCc3cn(Cc4ccc(Br)cc4)nn3)c1OC(=O)CCc1cn(Cc3ccc(Br)cc3)nn1)C13CCCC(C)(C)C1CC2OC3=O (stereo not drawn) [Compound 21]
6. COC(=O)C12CCCC(C)(C)C1CCc1cc(C(C)C)c(OC(=O)CCCc3cn(Cc4ccc(Br)cc4)nn3)c(OC(=O)CCCc3cn(Cc4ccc(Br)cc4)nn3)c12 (stereo not drawn) [Compound 14]
7. COC(=O)C12CCCC(C)(C)C1CCc1cc(C(C)C)c(OC(=O)CCc3cn(Cc4ccccc4)nn3)c(OC(=O)CCc3cn(Cc4ccccc4)nn3)c12 (stereo not drawn) [Compound 11]
8. COC(=O)C12CCCC(C)(C)C1CCc1cc(C(C)C)c(OC(=O)CCc3cn(CSc4ccccc4)nn3)c(OC(=O)CCc3cn(CSc4ccccc4)nn3)c12 (stereo not drawn) [Compound 9]

Solution:
[4.2, 4.3, 3.4, 1.9, 3.5, 6.3, 5.5, 4.7]
